Sequence of the target: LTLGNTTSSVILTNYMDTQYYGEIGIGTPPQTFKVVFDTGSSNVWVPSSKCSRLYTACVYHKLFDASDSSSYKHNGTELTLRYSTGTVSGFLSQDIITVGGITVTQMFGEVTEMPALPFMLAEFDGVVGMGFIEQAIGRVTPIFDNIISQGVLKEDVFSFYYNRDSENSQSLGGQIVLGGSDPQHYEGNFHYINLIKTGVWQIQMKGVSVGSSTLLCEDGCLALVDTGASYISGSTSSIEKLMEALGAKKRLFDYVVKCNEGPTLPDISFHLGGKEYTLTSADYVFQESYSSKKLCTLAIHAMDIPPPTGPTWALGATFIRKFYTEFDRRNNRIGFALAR
measurementKind: IC50 (nM)
The response must be a number in nM with no trailing unit.

Answered examples (5):
CC(C)C[C@H](NC(=O)[C@H](Cc1c[nH]cn1)NC(=O)C(CC(=O)NCCc1ccccc1)Cc1cccc2ccccc12)[C@@H](O)CCO (single isomer, unassigned): 5900
CC(C)CCNCC(O)[C@H](CC(C)C)NC(=O)[C@H](Cc1cnc[nH]1)NC(=O)C(CC(=O)NCCc1ccccc1)Cc1cccc2ccccc12 (single isomer, unassigned): 350
CC(C)CCNC(=O)C[C@H](O)[C@H](CC(C)C)NC(=O)[C@H](Cc1cnc[nH]1)NC(=O)C(CC(=O)NCCc1ccccc1)Cc1cccc2ccccc12 (single isomer, unassigned): 72
CC(C)C[C@H](NC(=O)[C@H](Cc1c[nH]cn1)NC(=O)C(CC(=O)NCCc1ccccc1)Cc1cccc2ccccc12)C(O)C(=O)OCc1ccccc1 (single isomer, unassigned): 42
CNC(=O)C[C@H](O)[C@H](CC(C)C)NC(=O)[C@H](Cc1cnc[nH]1)NC(=O)C(CC(=O)NCCc1ccccc1)Cc1cccc2ccccc12 (single isomer, unassigned): 740

*Q* Give reported IC50 value for CC(C)C[C@H](NC(=O)[C@H](Cc1cnc[nH]1)NC(=O)C(CC(=O)NCCc1ccccc1)Cc1cccc2ccccc12)C(O)CNCc1ccccc1 (single isomer, unassigned)
*A* 150

*Q* Give reported IC50 value for CC(C)C[C@H](NC(=O)[C@H](Cc1cnc[nH]1)NC(=O)C(CC(=O)NCCc1ccccc1)Cc1cccc2ccccc12)C(O)COCc1ccccc1 (single isomer, unassigned)
*A* 470

*Q* Give reported IC50 value for CC(C)CCOCC(O)[C@H](CC(C)C)NC(=O)[C@H](Cc1c[nH]cn1)NC(=O)C(CC(=O)NCCc1ccccc1)Cc1cccc2ccccc12 (single isomer, unassigned)
*A* 280
